experimental system: T1, SARS-CoV-2-RBD (328-533)-Fc (SARS-CoV-2)
T1 construct: also called RBD-Fc
assay summary: SPR (Biacore T200), RBD captured on anti-human Fc chip, scFv injected
observable: koff (s⁻¹)
Give a bare numeral; the unit s⁻¹ is implied.

Quick check: koff of 2020EP61-A08 scFv (scFv) scFv: QVQLVQSGAEVKKPGASVKVSCKASGYTFTSYYMHWVRQAPGQGLEWMGIINPSGGSTSYAQKFQGRVTMTRDTSTSTVYMELSSLRSEDTAVYYCARESGNYYYDSSGYTFDYWGQGTLVTVSSGGGGSGGGGSGGGGSSYVLTQPLSVSVALGQTARITCGGNNIGSKNVHWYQQKPGQAPVLVIYYDSDRPSGIPERFSGSNSGNTATLTISGTQAMDEADYYCQAWDSSTVVFGGGTKLTVL ?
0.00191

Record request: koff value, item 2020EP54-B02 scFv (scFv) scFv: QVQLVQSGAEVKKPGASVKVSCKASGYTFIGYYMHWMRQAPGQGLEWMGRINPNSGGTNYAEKFQGRVTMTRDTSISTAYMELSRLTFNDTAVYYCARWDSSSWKFDSWGQGTLVTVSSGGGGSGGGGSGGGGSEIVLTQSPSSLSASVGDRVTITCQASQDISNYLNWYQQKPGKAPKLLIYDASNLETGVPSRFSGSGSGTDFTFTISSLQPEDIATYYCQQYDNLPITFGQGTRLEIK
0.00242
